tested on: Plasmodium falciparum; experiment: Antiplasmodial activity against chloroquine-resistant Plasmodium falciparum K1; type: functional, organism-based
Reported IC50 values for a set of compounds
Numeric answer only, unit nM assumed.

Known results for compounds:
>  <compound>
OC(c1ccccc1)(c1ccc(Cl)cc1)c1ccc(CN2CCCC2)cc1 (racemic)

>  <reported>
2170

$$$$
>  <compound>
Clc1ccc(C(c2ccccc2)(c2ccc(CN3CCCC3)cc2)n2cncn2)cc1 (racemic)

>  <reported>
2150

$$$$
>  <compound>
CCN(CC)CCCNCC(c1ccccc1Cl)n1ccnc1 (racemic)

>  <reported>
3080

$$$$

Now take the following compound into account.
Consider Clc1ccc(C(c2ccc(CN3CCCC3)cc2)n2ccnc2)cc1 (racemic) . Its measured IC50 is 170
